System: rodent lifetime carcinogenesis bioassay, tumor incidence TD50
Test: carcinogenic potency in animals, long-term in vivo studies, CPDB compilation (AID 1745844)
Settings: rat; strain Fischer 344; males; by gavage; site: testis; lesion: interstitial-cell adenoma; dosed 65 weeks; study length 104 weeks
METRIC: TD50 (mg/kg/day)
# number only, unit mg/kg/day dropped from output

Lookup: In one line, give reported TD50 of the entry O=c1ccc2ccccc2o1 .
Found: 8.22

----------
Test system: rodent lifetime carcinogenesis bioassay, tumor incidence TD50
Test: carcinogenic potency in animals, long-term in vivo studies, CPDB compilation (AID 1745844)
Conditions: mouse; strain CDF1; males; in feed; site: forestomach; lesion: papilloma; dosed 78 weeks; study length 104 weeks
METRIC: TD50

Lookup: Please list TD50 recorded for the compound NC(=O)C(=Cc1ccc([N+](=O)[O-])o1)c1ccco1
Found: 753 mg/kg/day
